Tested on: NCI-H226 lung
Assay: NCI tumour cell line growth inhibition, 48 h
readout.kind: TGI

>>> value_reported("Cn1c(=O)c(Oc2ccc(F)cc2F)cc2cnc(NC3CCS(=O)(=O)CC3)nc21")
"> 25 µM"
>>> value_reported("FC(F)(Sc1ncc[nH]1)c1nc2ccccc2o1")
"> 100 µM"
>>> value_reported("O=C1C=CC(=O)c2c1ccc1c3ccccc3n(-c3ccccc3[N+](=O)[O-])c21")
"50.3 µM"
>>> value_reported("CCOC(=O)c1c2c(c(O)c3ccccc3c(O)n(Cc3ccccc3)c1C)C(=O)C=CC2=O")
"> 100 µM"
>>> value_reported("CCOC(=O)C(NC(=O)c1ccccc1)(Nc1ccc(Cl)cc1C(F)(F)F)C(F)(F)F (configuration not stated)")
"> 100 µM"
>>> value_reported("O=C(Nc1n[nH]c2nnc(-c3cccnc3)cc12)C1CC1")
"> 13.9 µM"
>>> value_reported("c1ccc2c(c1)N=C(c1cccc3ccccc13)CC(c1ccc3c(c1)OCO3)S2 (configuration not stated)")
"> 100 µM"
>>> value_reported("CC(=O)Nc1ccc(COC(O)CN2CCCCC2)cc1[N+](=O)[O-] (configuration not stated)")
"> 100 µM"
>>> value_reported("CN1CCN(C)C12C=CC=CC21CC1")
"> 100 µM"
>>> value_reported("COc1cc(C2C(Cl)C(=O)N2NC(=O)c2ccc(N)cc2)cc(Br)c1O (configuration not stated)")
"46.2 µM"
>>> value_reported("Cn1c(NCC(O)CN2CCCC2)cc(=O)n(C)c1=O (configuration not stated)")
"> 100 µM"
>>> value_reported("CC(=O)N1N=C2/C(=C/c3ccc(Cl)cc3)CC(C)CC2C1c1ccc(Cl)cc1 (configuration not stated)")
"70.2 µM"
>>> value_reported("Fc1ccc(-c2sc(-c3cccs3)cc2Cc2cccs2)cc1")
"> 100 µM"
>>> value_reported("O=C(Nc1cccc2c1[nH]c1c(-c3ccccc3)nccc12)c1ccccc1[N+](=O)[O-]")
"9.7 µM"
>>> value_reported("COc1ccccc1NC(=O)c1nc2ccc([N+](=O)[O-])cc2nc1C")
"> 100 µM"
>>> value_reported("Cc1cc(C)nc(NS(=O)(=O)c2ccc(Nc3c4ccc(Cl)cc4nc4c(C(=O)NCCN(C)C)cccc34)cc2)n1")
"> 100 µM"
>>> value_reported("O=C(/C(=C\\c1ccc(Cl)cc1)c1ccccc1)c1ccccc1")
"> 100 µM"
>>> value_reported("Ic1cc2c(cc1C1SCCCS1)OCO2")
"> 100 µM"
>>> value_reported("COc1ccc2nc3cc(Cl)ccc3c(Sc3ccc([N+](=O)[O-])cc3)c2c1")
"> 100 µM"
>>> value_reported("O=C(c1ccc(Cl)cc1)N(C(=S)OCc1ccccn1)c1ccccc1")
"> 100 µM"
>>> value_reported("CN1CN(c2ccccc2)C2(CCN(CCC3COc4ccccc4O3)CC2)C1=O (configuration not stated)")
"85.1 µM"
>>> value_reported("O=C1C=C(OCCCCl)C(=O)c2c(O)ccc(O)c21")
"3.7 µM"

* * *

Tested on: RPMI-8226 leukemia
Assay: NCI tumour cell line growth inhibition, 48 h
readout.kind: TGI

>>> value_reported("NC12CCC(CC1=O)C2 (stereo unspecified)")
"> 100 µM"
>>> value_reported("CCOP(=O)(OCC)/C(C#N)=C/c1cnc[nH]1")
"> 100 µM"
>>> value_reported("CC(C)NC(=O)CCN(C(=O)O)S(=O)(=O)c1ccc(NC(=O)c2ccccc2)cc1")
"> 71.5 µM"
>>> value_reported("Cc1ccc(NC(=O)c2sc3nc4c(cc3c2N)C(=O)CCC4)cc1C")
"> 30.4 µM"
>>> value_reported("CSc1nc2c(ncn2C2OCC(O)C(O)C2O)c(=O)n1C (stereo unspecified)")
"> 100 µM"
>>> value_reported("NN1C(=O)C(CCO)S/C1=N/N=C1/SC(CCO)C(=O)N1N (stereo unspecified)")
"> 100 µM"
